Please respond with reported protein stability index for every item in the list.
B1: PLK2 (parent)
chain: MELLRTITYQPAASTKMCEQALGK

- Variants of: B1
- test_summary: protein stability index of a GFP-peptide fusion (GPS, HEK-293T) (PSI 1-6); higher = more stable;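 note: lentivirally expressed fusions sorted by FACS into six bins by GFP to DsRed ratio, PSI derived from sequencing read proportions per bin multiplied by bin number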
- settings: c terminus: a fixed tail appended
Give bare numbers.

Example results:
K16C :: 2.95
R5C :: 1.47

Answer for every listed entry: what is its protein stability index? The entries follow.
1. E2H
2. K16N
3. E2S
4. G23Q
5. P11Q

Output:
[2.05, 2.01, 2.38, 1.87, 2.65]
